Test system: MDA-MB-231 breast
Experiment: NCI tumour cell line growth inhibition, 48 h
endpointName: TGI

O=c1[nH]c(Sc2sc3ccc(Cl)cc3c2CBr)nc(=S)[nH]1 | > 100 µM
C#C[C@]1(O)CC[C@H]2[C@@H]3CC=C4c5sc(NCc6ccccc6)nc5CC[C@]4(C)[C@H]3CC[C@@]21C | 7.07 µM
CCN(CC)CCOc1ccc(C(=C(c2ccccc2)C2CCCC2)c2ccc(OCCN(CC)CC)cc2)cc1 | 15.6 µM
CC[C@H](C)[C@H]1NC(=O)[C@@H]([C@H](O)C(C)C)NC(=O)[C@@H](C)N(C)C(=O)[C@H](C)N(C)C(=O)[C@H](CC(C)C)NC(=O)[C@H](CC(C)C)N(C)C(=O)[C@H](C)N(C)C1=O | > 14.3 µM

Values were extracted from PubChem BioAssay (NCI).
